meta.source: the supplement of paper PMC10307832

- Test system: NCI-H2023
- ASSAY_METHOD_TEXT: relative viability (nuclei count vs DMSO), 5 days (fraction); higher = more cells survive
- CONDITIONS_USED: first compound 1 µM
Measured relative viability, listed per entry.
ENDPOINT: relative viability

>>> measured_result("NC(=O)Nc1cc(-c2cccc(F)c2)sc1C(=O)N[C@H]1CCCNC1 [AZD7762] + CCNC(=O)c1noc(-c2cc(C(C)C)c(O)cc2O)c1-c1ccc(CN2CCOCC2)cc1 [Luminespib] (partner 0.01 µM)")
0.114
>>> measured_result("NC(=O)Nc1cc(-c2cccc(F)c2)sc1C(=O)N[C@H]1CCCNC1 [AZD7762] + O=C(c1cc(Cc2n[nH]c(=O)c3ccccc23)ccc1F)N1CCN(C(=O)C2CC2)CC1 [Olaparib] (partner 8 µM)")
0.0963
>>> measured_result("NC(=O)Nc1cc(-c2cccc(F)c2)sc1C(=O)N[C@H]1CCCNC1 [AZD7762] + Cc1cc(Nc2cc(N3CCN(C)CC3)nc(Sc3ccc(NC(=O)C4CC4)cc3)n2)n[nH]1 [Tozasertib] (partner 0.1 µM)")
0.0751
>>> measured_result("NC(=O)Nc1cc(-c2cccc(F)c2)sc1C(=O)N[C@H]1CCCNC1 [AZD7762] + C[C@@H](Oc1cc(-c2cnn(C3CCNCC3)c2)cnc1N)c1c(Cl)ccc(F)c1Cl [Crizotinib] (partner 1 µM)")
0.118
>>> measured_result("NC(=O)Nc1cc(-c2cccc(F)c2)sc1C(=O)N[C@H]1CCCNC1 [AZD7762] + COc1cccc2cc(-c3nc([C@H]4CC[C@H](C(=O)O)CC4)n4ncnc(N)c34)[nH]c12 [OSI-027] (partner 0.5 µM)")
0.105
>>> measured_result("NC(=O)Nc1cc(-c2cccc(F)c2)sc1C(=O)N[C@H]1CCCNC1 [AZD7762] + O=C(CCCCCCC(=O)Nc1ccccc1)NO [Vorinostat] (partner 1 µM)")
0.0942
>>> measured_result("NC(=O)Nc1cc(-c2cccc(F)c2)sc1C(=O)N[C@H]1CCCNC1 [AZD7762] + CC(C)C[C@H](NC(=O)[C@H](Cc1ccccc1)NC(=O)c1cnccn1)B(O)O [Bortezomib] (partner 0.002 µM)")
0.104
>>> measured_result("NC(=O)Nc1cc(-c2cccc(F)c2)sc1C(=O)N[C@H]1CCCNC1 [AZD7762] + Cc1nc(Nc2ncc(C(=O)Nc3c(C)cccc3Cl)s2)cc(N2CCN(CCO)CC2)n1 [Dasatinib] (partner 0.075 µM)")
0.0942

----------
- System: NCI-H520
- ASSAY_METHOD_TEXT: relative viability (nuclei count vs DMSO), 5 days (fraction); higher = more cells survive
- CONDITIONS_USED: first compound 0.4 µM
Measured relative viability, listed per entry.
ENDPOINT: relative viability

>>> measured_result("O=C(O)c1ccc(-c2c[nH]c3ncc(-c4ccccc4)cc23)cc1C1CCCC1 + Nc1ncn([C@H]2C[C@H](O)[C@@H](CO)O2)c(=O)n1 [Decitabine] (partner 2 µM)")
0.5
>>> measured_result("O=C(O)c1ccc(-c2c[nH]c3ncc(-c4ccccc4)cc23)cc1C1CCCC1 + O=C(CCCCCCC(=O)Nc1ccccc1)NO [Vorinostat] (partner 1 µM)")
0.71
>>> measured_result("O=C(O)c1ccc(-c2c[nH]c3ncc(-c4ccccc4)cc23)cc1C1CCCC1 + CC1(C)CCC(c2ccc(Cl)cc2)=C(CN2CCN(c3ccc(C(=O)NS(=O)(=O)c4ccc(N[C@H](CCN5CCOCC5)CSc5ccccc5)c(S(=O)(=O)C(F)(F)F)c4)cc3)CC2)C1 [Navitoclax] (partner 0.5 µM)")
1.18
>>> measured_result("O=C(O)c1ccc(-c2c[nH]c3ncc(-c4ccccc4)cc23)cc1C1CCCC1 + N=C(N)NC(=N)NCCc1ccccc1 [Phenformin] (partner 250 µM)")
0.585
